tested on: 361931-004-R-J1-PDC multicell spheroid viability; test: Anticancer human tumor 361931-004-R-J1-PDC patient-derived colon adenocarcinoma cell line growth inhibition [PI3K]; settings: compound 0.316 µM; hits give low values
Reported values of viability, T/C for individual entries

Examples from the recorded data:
CC(C)NCC(C(=O)N1CCN(c2ncnc3c2C(C)CC3O)CC1)c1ccc(Cl)cc1 (stereo not given) | 94.3% [middle of 4 runs]
C[C@@H](NC(=O)c1ncnc(N)c1Cl)c1ncc(C(=O)Nc2cc(C(F)(F)F)c(Cl)cn2)s1 | 107% [middle of 4 runs]
Cc1nc(NC(=O)N2CCCC2C(N)=O)sc1-c1ccnc(C(C)(C)C(F)(F)F)c1 (stereo not given) | 97.9% [middle of 8 runs]
CNC(=O)c1ccc(N2C(=S)N(c3ccc(C#N)c(C(F)(F)F)c3)C(=O)C2(C)C)cc1F | 104% [middle of 4 runs]

Here is another compound to look at.
State its viability, T/C for this compound: C#Cc1c(F)ccc2cc(O)cc(-c3ncc4c(N5CC6CCC(C5)N6)nc(OCC56CCCN5CC(F)C6)nc4c3F)c12 (stereo not given) 100% [middle of 4 runs]

* * *

system: 361931-004-R-J1-PDC multicell spheroid viability; test: Anticancer human tumor 361931-004-R-J1-PDC cell line growth inhibition [PI3K]; settings: second compound 1 µM; first compound 0.1 µM; hits give low values;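 note: spheroids exposed to agents for seven days before readout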
METRIC_NAME: viability, T/C (%)
Form entry: value (%) — number only.

CC(C)NCC(C(=O)N1CCN(c2ncnc3c2C(C)CC3O)CC1)c1ccc(Cl)cc1 (centres undefined) + CC(Nc1ncnc2nc[nH]c12)c1cc2cccc(Cl)c2c(=O)n1-c1ccccc1 | 104
Cn1ncnc1[C@H]1c2n[nH]c(=O)c3cc(F)cc(c23)N[C@@H]1c1ccc(F)cc1 + CC(Nc1ccc2c(c1)OCCn1cc(N3C(=O)OCC3C(F)F)nc1-2)C(N)=O | 64.4
Cn1nccc1Nc1nccc(-c2ccn(C(CO)c3ccc(Cl)c(F)c3)c(=O)c2)n1 (centres undefined) + Cc1nc(NC(=O)N2CCCC2C(N)=O)sc1-c1ccnc(C(C)(C)C(F)(F)F)c1 | 99.6
CCN1CCN(Cc2ccc(Nc3ncc(F)c(-c4cc(F)c5nc(C)n(C(C)C)c5c4)n3)nc2)CC1 + CC(Nc1ccc2c(c1)OCCn1cc(N3C(=O)OCC3C(F)F)nc1-2)C(N)=O | 56.1
CC1(C)CCC(CN2CCN(c3ccc(C(=O)NS(=O)(=O)c4ccc(NCC5CCOCC5)c([N+](=O)[O-])c4)c(Oc4cnc5[nH]ccc5c4)c3)CC2)=C(c2ccc(Cl)cc2)C1 + CC(Nc1ncnc2nc[nH]c12)c1cc2cccc(Cl)c2c(=O)n1-c1ccccc1 | 99.2
CCN1CCN(Cc2ccc(Nc3ncc(F)c(-c4cc(F)c5nc(C)n(C(C)C)c5c4)n3)nc2)CC1 + COc1c(OCCCN2CCOCC2)ccc2c3n(c(=NC(=O)c4cnc(N)nc4)nc12)CCN3 | 22.2
C[C@@H](NC(=O)c1ncnc(N)c1Cl)c1ncc(C(=O)Nc2cc(C(F)(F)F)c(Cl)cn2)s1 + CC(Nc1ncnc2nc[nH]c12)c1cc2cccc(Cl)c2c(=O)n1-c1ccccc1 | 99.9
C#Cc1c(F)ccc2cc(O)cc(-c3ncc4c(N5CC6CCC(C5)N6)nc(OCC56CCCN5CC(F)C6)nc4c3F)c12 (centres undefined) + Cc1nc(NC(=O)N2CCCC2C(N)=O)sc1-c1ccnc(C(C)(C)C(F)(F)F)c1 | 86.2

Okay, next one:
Fill in reported viability, T/C for this entry: CC(C)n1nc(-c2ccc3oc(N)nc3c2)c2c(N)ncnc21 + Cc1nc(NC(=O)N2CCCC2C(N)=O)sc1-c1ccnc(C(C)(C)C(F)(F)F)c1 39.9

* * *

Test system: 361931-004-R-J1-PDC multicell spheroid viability
Experiment: Anticancer human tumor 361931-004-R-J1-PDC cell line growth inhibition [PI3K];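 note: spheroids exposed to agents for seven days before readout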
Conditions: second compound 1 µM; first compound 0.1 µM; hits give low values
From the text: Combinatorial screen of targeted agents with the PI3K inhibitors inavolisib, alpelisib, duvelisib, and copanlisib in multi-cell type tumor spheroids A high-throughput screen of multi-cell type tumor spheroids was designed to identify active combinations of targeted small molecules and PI3K pathway inhibitors. […] Compounds. […] If the clinical Cmax for an agent had not been determined, the highest concentration tested was 10 microM. […]
METRIC_NAME: viability, T/C (%)
Record the value in %, omitting the unit from your answer.

# count of solved cases: 2
CC(Cn1ccc(-c2ccc(C#N)c(Cl)c2)n1)NC(=O)c1cc(C(C)O)[nH]n1 (stereo not drawn) + CC(Nc1ncnc2nc[nH]c12)c1cc2cccc(Cl)c2c(=O)n1-c1ccccc1 | 102
CC(C)NCC(C(=O)N1CCN(c2ncnc3c2C(C)CC3O)CC1)c1ccc(Cl)cc1 (stereo not drawn) + CC(Nc1ccc2c(c1)OCCn1cc(N3C(=O)OCC3C(F)F)nc1-2)C(N)=O | 71.1

Let me know recorded viability, T/C for C#Cc1c(F)ccc2cc(O)cc(-c3ncc4c(N5CC6CCC(C5)N6)nc(OCC56CCCN5CC(F)C6)nc4c3F)c12 (stereo not drawn) + CC(Nc1ncnc2nc[nH]c12)c1cc2cccc(Cl)c2c(=O)n1-c1ccccc1 , thanks. 98.6

* * *

tested on: 361931-004-R-J1-PDC multicell spheroid viability; assay: Anticancer human tumor 361931-004-R-J1-PDC cell line growth inhibition [PI3K]; conditions: second compound 0.0316 µM; first compound 1 µM; hits give low values;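 note: spheroids exposed to agents for seven days before readout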
Listed below: viability, T/C values for each entry.
Express the result in % but write the number alone.

Some compounds with recorded viability, T/C:
C#Cc1c(F)ccc2cc(O)cc(-c3ncc4c(N5CC6CCC(C5)N6)nc(OCC56CCCN5CC(F)C6)nc4c3F)c12 (stereo not given) + CC(Nc1ccc2c(c1)OCCn1cc(N3C(=O)OCC3C(F)F)nc1-2)C(N)=O | 81.3
CNC(=O)c1ccc(N2C(=S)N(c3ccc(C#N)c(C(F)(F)F)c3)C(=O)C2(C)C)cc1F + CC(Nc1ccc2c(c1)OCCn1cc(N3C(=O)OCC3C(F)F)nc1-2)C(N)=O | 102
CCN1CCN(Cc2ccc(Nc3ncc(F)c(-c4cc(F)c5nc(C)n(C(C)C)c5c4)n3)nc2)CC1 + CC(Nc1ccc2c(c1)OCCn1cc(N3C(=O)OCC3C(F)F)nc1-2)C(N)=O | 55.4
CNC(=O)c1ccc(N2C(=S)N(c3ccc(C#N)c(C(F)(F)F)c3)C(=O)C2(C)C)cc1F + CC(Nc1ncnc2nc[nH]c12)c1cc2cccc(Cl)c2c(=O)n1-c1ccccc1 | 96.6

Read the next record carefully.
Report viability, T/C for CC1(C)CCC(Nc2ncc(C(F)(F)F)c(-c3c[nH]c4c(P(C)(C)=O)c(C#N)ccc34)n2)CN1 (stereo not given) + CC(Nc1ncnc2nc[nH]c12)c1cc2cccc(Cl)c2c(=O)n1-c1ccccc1 101

* * *

Recorded viability, T/C, one value per entry.
system: 361931-004-R-J1-PDC multicell spheroid viability; test: Anticancer human tumor 361931-004-R-J1-PDC cell line growth inhibition [PI3K]; conditions: second compound 1 µM; first compound 0.00316 µM; hits give low values;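 note: spheroids exposed to agents for seven days before readout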
// note: answer is a bare numeric in %

Examples with their reported viability, T/C follow.
Cn1ncnc1[C@H]1c2n[nH]c(=O)c3cc(F)cc(c23)N[C@@H]1c1ccc(F)cc1 + COc1c(OCCCN2CCOCC2)ccc2c3n(c(=NC(=O)c4cnc(N)nc4)nc12)CCN3 | 20.5
Cn1ncnc1[C@H]1c2n[nH]c(=O)c3cc(F)cc(c23)N[C@@H]1c1ccc(F)cc1 + CC(Nc1ccc2c(c1)OCCn1cc(N3C(=O)OCC3C(F)F)nc1-2)C(N)=O | 88.2
CCN1CCN(Cc2ccc(Nc3ncc(F)c(-c4cc(F)c5nc(C)n(C(C)C)c5c4)n3)nc2)CC1 + COc1c(OCCCN2CCOCC2)ccc2c3n(c(=NC(=O)c4cnc(N)nc4)nc12)CCN3 | 22.7
CC(C)n1nc(-c2ccc3oc(N)nc3c2)c2c(N)ncnc21 + CC(Nc1ccc2c(c1)OCCn1cc(N3C(=O)OCC3C(F)F)nc1-2)C(N)=O | 82.4

Give the value of viability, T/C reported for the following: CC(C)n1nc(-c2ccc3oc(N)nc3c2)c2c(N)ncnc21 + Cc1nc(NC(=O)N2CCCC2C(N)=O)sc1-c1ccnc(C(C)(C)C(F)(F)F)c1 82.3

Determine its reported viability, T/C: CC(=O)c1c(C)c2cnc(Nc3ccc(N4CCNCC4)cn3)nc2n(C2CCCC2)c1=O + Cc1nc(NC(=O)N2CCCC2C(N)=O)sc1-c1ccnc(C(C)(C)C(F)(F)F)c1 84.9

Read the entry Cn1ncnc1[C@H]1c2n[nH]c(=O)c3cc(F)cc(c23)N[C@@H]1c1ccc(F)cc1 + CC(Nc1ncnc2nc[nH]c12)c1cc2cccc(Cl)c2c(=O)n1-c1ccccc1 and write its reported viability, T/C. 102

Give viability, T/C for CC(C)n1nc(-c2ccc3oc(N)nc3c2)c2c(N)ncnc21 + COc1c(OCCCN2CCOCC2)ccc2c3n(c(=NC(=O)c4cnc(N)nc4)nc12)CCN3 22.3

Name the recorded viability, T/C of the molecule listed here: CCN1CCN(Cc2ccc(Nc3ncc(F)c(-c4cc(F)c5nc(C)n(C(C)C)c5c4)n3)nc2)CC1 + Cc1nc(NC(=O)N2CCCC2C(N)=O)sc1-c1ccnc(C(C)(C)C(F)(F)F)c1 95.2

Using the record for CC(=O)c1c(C)c2cnc(Nc3ccc(N4CCNCC4)cn3)nc2n(C2CCCC2)c1=O + COc1c(OCCCN2CCOCC2)ccc2c3n(c(=NC(=O)c4cnc(N)nc4)nc12)CCN3 , state its measured viability, T/C. 16.4
